Listing of entries alongside the reported IC50.
- Test system: Vero
- assay_summary: Cytotoxicity against african green monkey Vero cells assessed as loss of cell monolayers after 96 hrs
- Type: cell-based
- condition_summary: Chlorocebus sabaeus

Example entries begin here.
C=C1CC[C@H](OC(C)=O)[C@]2(C)CCC3=C(C(C)C)CC[C@@]3(C)C[C@@]12O [AMIJIOL ACETATE] | 20.5 µg/mL
CC(C)=CCC[C@@H](C)[C@@H]1CC=C(C)[C@@H]2CC=C(C)[C@H]2[C@@H]1O | 28.3 µg/mL
CC(C)=CCC[C@@H](C)[C@H]1[C@@H](O)[C@@H]2C(C)=CC[C@H]2[C@@](C)(O)C[C@H]1O | 161 µg/mL

# context switch: different compound, same IC50
Request: I'd like to know its IC50. The compound in question is C=C1CC[C@@H]([C@H](C)CCC=C(C)C)[C@@H](O)[C@@H]2C(C)=CC[C@@H]12
Response: 27.4 µg/mL

###

- assay_summary: Cytotoxicity against human WI38 cells assessed as cell viability at 100 ug/ml after 96 hrs relative to control
- Type: cell-based, WI-38
- condition_summary: read-out: Activity
readout_label: viability at 96 h, 100 ug/ml (%)
# unit: % | format: bare number

Request: I'd like to know its viability at 96 h, 100 ug/ml. The compound in question is C=C1CC[C@H](OC(C)=O)[C@]2(C)CCC3=C(C(C)C)CC[C@@]3(C)C[C@@]12O [AMIJIOL ACETATE]
Response: 0

###

- System: Brain
- assay_summary: Antioxidant activity in rat brain/kidney homogenates assessed as inhibition of lipid peroxidation at 2 mM by […] method
- Type: functional, tissue-based
Kindly return y if reported inhibition is no lower than 60%; return n if it is lower.

Please review the entries below; each comes with its answer.
O=C1O[C@H]([C@@H](O)CO)C(O)=C1O | y
CC(C)=CCC[C@@H](C)[C@H]1[C@@H](O)[C@@H]2C(C)=CC[C@H]2[C@@](C)(O)C[C@H]1O | n
C=C1CC[C@H](OC(C)=O)[C@]2(C)CCC3=C(C(C)C)CC[C@@]3(C)C[C@@]12O [AMIJIOL ACETATE] | y
C=C1CC[C@H](O)[C@]2(C)C[C@H](OC(C)=O)C3=C(C(C)C)[C@H](OC(C)=O)C[C@@]3(C)C[C@@]12O [AMIJIOL-7,10-DIACETATE] | y
C/C1=C\[C@@H](O)C/C(C)=C/C[C@]2(C)CCC(C(C)C)=C2CC1 [DOLABELLATRIENOL] | n
C=C1CC[C@@H]([C@H](C)CCC=C(C)C)[C@@H](O)[C@@H]2C(C)=CC[C@@H]12 | n

// switching to the query molecule
Request: Exam item: decide whether the reported inhibition for CC(C)=CCCC(C)C1CC/C(C)=C/CCC2COC(O)C21 (stereo not given) is at least 60%.
Response: n

###

- Test system: Calf thymus DNA
- assay_summary: Protective activity against bleomycin-iron complex-induced calf thymus DNA damage assessed as chromogen formation at 0.1 mg/ml after 1 hr
- Assay type: nucleic-acid assay
- condition_summary: Bos taurus
The source made the active and inactive calls. The calls are words filed in the database; no cut-off is given here.
Output constraint: value belongs to YES = active, NO = inactive

Please review the entries below; each comes with its answer.
C/C1=C\[C@@H](O)C/C(C)=C/C[C@]2(C)CCC(C(C)C)=C2CC1 [DOLABELLATRIENOL] | NO
C=C1CC[C@H](O)[C@]2(C)C[C@H](OC(C)=O)C3=C(C(C)C)[C@H](OC(C)=O)C[C@@]3(C)C[C@@]12O [AMIJIOL-7,10-DIACETATE] | YES
CC(C)=CCC[C@@H](C)[C@H]1[C@@H](O)[C@@H]2C(C)=CC[C@H]2[C@@](C)(O)C[C@H]1O | NO
C=C1CC[C@@H]([C@H](C)CCC=C(C)C)[C@@H](O)[C@@H]2C(C)=CC[C@@H]12 | YES
C=C1C[C@@H](O)[C@@H]([C@H](C)CCC=C(C)C)[C@@H](O)[C@@H]2C(C)=CC[C@@H]12 | YES

Request: Answer briefly: the call reported for CC(C)=CCC[C@@H](C)[C@@H]1CC=C(C)[C@@H]2CC=C(C)[C@H]2[C@@H]1O in this assay.
Response: YES

Request: Answer briefly: the call reported for C=C1CC[C@H](OC(C)=O)[C@]2(C)CCC3=C(C(C)C)CC[C@@]3(C)C[C@@]12O [AMIJIOL ACETATE] in this assay.
Response: YES

Request: Answer briefly: the call reported for CC(C)=CCCC(C)C1CC/C(C)=C/CCC2COC(O)C21 (centres undefined) in this assay.
Response: YES

Request: Answer briefly: the call reported for C=C1CC[C@H](O)[C@]2(C)CCC3=C(C(C)C)CC[C@@]3(C)C[C@@]12O in this assay.
Response: YES

Values were extracted from ChEMBL document CHEMBL1649394.
